Target: Human NK1 Receptor (Homo sapiens, UniProt P25103)
Construct: endogenous in cells; host or cells: Human lymphoma IM9 cells (whole cells)
Sequence (P25103 whole entry): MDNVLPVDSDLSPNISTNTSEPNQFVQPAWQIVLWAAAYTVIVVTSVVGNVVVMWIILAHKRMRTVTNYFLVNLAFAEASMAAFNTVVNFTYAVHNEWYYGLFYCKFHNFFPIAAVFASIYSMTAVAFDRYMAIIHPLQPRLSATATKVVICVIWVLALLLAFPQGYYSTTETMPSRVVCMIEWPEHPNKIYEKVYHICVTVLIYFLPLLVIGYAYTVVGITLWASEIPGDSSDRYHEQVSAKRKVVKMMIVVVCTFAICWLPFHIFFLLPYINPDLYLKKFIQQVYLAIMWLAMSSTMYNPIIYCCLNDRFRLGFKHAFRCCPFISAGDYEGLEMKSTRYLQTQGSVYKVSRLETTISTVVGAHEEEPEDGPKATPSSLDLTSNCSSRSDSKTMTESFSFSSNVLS
Assay: In Vitro Human NK1 Receptor Binding Assay ([125I]Bolton-Hunter substance P displacement, IM9 cells)
Details: human NK1 receptor, IM9 cells, [125I]Bolton-Hunter substance P; read-out: IC50 (nM) hNK1
Lab note - cut at 300 nM for IC50: label 1 if strictly below, label 0 if not.

COMPOUND | LABEL VALUE
CC(Cc1c[nH]c2ccccc12)(NCc1cc2ccccc2o1)C(=O)NCc1ccc(F)cc1F (stereo not drawn) | label 1
CC(Cc1c[nH]c2ccccc12)(NCc1cc2ccccc2o1)C(=O)NCc1ccc(Cl)cc1 (stereo not drawn) | label 1
CC1(CNC(=O)C(C)(Cc2c[nH]c3ccccc23)NCc2cc3ccccc3o2)CCCO1 (stereo not drawn) | label 0
CC(Cc1c[nH]c2ccccc12)(NCc1cc2ccccc2o1)C(=O)NC1(CO)CCCC1 (stereo not drawn) | label 0
CC(Cc1c[nH]c2ccccc12)(NCc1cc2ccccc2o1)C(=O)NCC(c1ccccc1)c1ccccc1 (stereo not drawn) | label 0
CNCCNC(=O)C(C)(Cc1c[nH]c2ccccc12)NCc1cc2ccccc2o1 (stereo not drawn) | label 0
CC(Cc1c[nH]c2ccccc12)(NCc1cc2ccccc2o1)C(=O)NCc1ccccn1 (stereo not drawn) | label 0
CC(Cc1c[nH]c2ccccc12)(NCc1cc2ccccc2o1)C(=O)NCC1(c2ccccc2)CC1 (stereo not drawn) | label 0
CC(Cc1n[nH]c2ccccc12)NC(=O)C(C)(Cc1c[nH]c2ccccc12)NCc1cc2ccccc2o1 (stereo not drawn) | label 0
CC(Cc1c[nH]c2ccccc12)(NCc1cc2ccccc2o1)C(=O)NCc1ncc(C(=O)O)c(O)n1 (stereo not drawn) | label 0
CC(NC(=O)C(C)(Cc1c[nH]c2ccccc12)NCc1cc2ccccc2o1)c1ccccc1 (stereo not drawn) | label 1
CC(Cc1c[nH]c2ccccc12)(NCc1cc2ccccc2o1)C(=O)NCc1ccc(F)c(Cl)c1 (stereo not drawn) | label 1

Cited source for all entries: patent US6472418B1
